Measured target: Ba/F3 cell EGFR Exon20 ins NPH (Homo sapiens, UniProt P00533, INS773NPH)
Construct: expressed in transfected cells; host or cells: Ba/F3
Experiment summary: Ba/F3 cell proliferation suppression, EGFR Exon20 ins NPH
Format: cell-based
Condition info: GI50 class; Ba/F3 cell line with NPH inserted at Exon20 of EGFR; 72 hours
Description: The following experiment was carried out to evaluate the suppression activity of the compounds according to the present invention against proliferation of Ba/F3 and lung cancer cells which express EGFR mutations. Of the cancer cell lines expressing the EGFR gene, A549 was cultured after adding 10% FBS (HyClone) to DMEM (Invitrogen), and RPMI-1640 (Invitrogen) with 10% FBS was used for the other cancer cells. […] The result was calculated as a cell growth ratio (%) compared to a control. […]
Quantity measured: Ba/F3 (NPH) Activity

C=CC(=O)Nc1cc(Nc2cc(N3OCC[C@@H]3c3cccc(Cl)c3C)ncn2)c(OC)cc1N1CCC(N2CCN(C3CC3)[C@@H](C)C2)CC1 = A (GI50 < 50 nM)
C=CC(=O)Nc1cc(Nc2cc(N3OCC[C@@H]3Cc3ccccc3)ncn2)c(OC)cc1N1CCN(CC2CC2)CC1 = A (GI50 < 50 nM)
C=CC(=O)Nc1cc(Nc2cc(N3OCC[C@@H]3c3cc(F)ccc3F)ncn2)c(OC)cc1N1CC[C@@H](N(C)C)C1 = A (GI50 < 50 nM)
